- Protocol text: Solubility in solvent
- Format: physicochemical
- Condition info: 25° C. water (pH 7)
Parameter: solubility

The recorded solubility for entry O=c1c(O)c(-c2ccc(O)c(O)c2)oc2cc(O)cc(O)c12 [quercetin] equals ~2 µg/mL

Where these numbers come from: patent US5565435A
